Target: T1, human Tissue Factor on human TF-positive cells (human, UniProt P13726 33-295)
T1 construct: also called hTF; CD142
Experiment: flow cytometry, antibody titration on HCT-116 cells (endogenous human TF), 4-parameter fit of MFI
pEC50: −log10 of the molar value.

>  <binder>
25G9 (antibody, human IgG1, V domains shown, Human IgG1; also called antibody designated 25G9) VH: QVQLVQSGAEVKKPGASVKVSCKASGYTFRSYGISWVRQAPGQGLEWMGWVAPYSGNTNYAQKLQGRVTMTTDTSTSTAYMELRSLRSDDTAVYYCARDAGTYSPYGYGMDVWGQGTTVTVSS VL: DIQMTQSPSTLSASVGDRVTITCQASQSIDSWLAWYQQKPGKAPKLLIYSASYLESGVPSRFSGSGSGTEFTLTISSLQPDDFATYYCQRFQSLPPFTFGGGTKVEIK

>  <pEC50>
9.77

$$$$
>  <binder>
25G (antibody, human IgG1, V domains shown, Human IgG1; also called antibody designated 25G) VH: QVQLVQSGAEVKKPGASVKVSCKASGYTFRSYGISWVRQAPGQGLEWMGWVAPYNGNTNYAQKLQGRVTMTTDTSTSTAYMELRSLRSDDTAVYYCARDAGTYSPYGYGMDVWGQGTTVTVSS VL: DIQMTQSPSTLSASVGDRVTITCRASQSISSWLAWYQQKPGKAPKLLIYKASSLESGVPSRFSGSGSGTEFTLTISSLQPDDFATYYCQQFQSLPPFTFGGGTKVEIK

>  <pEC50>
9.87

$$$$
>  <binder>
25A (antibody, human IgG1, V domains shown, Human IgG1; also called antibody designated 25A) VH: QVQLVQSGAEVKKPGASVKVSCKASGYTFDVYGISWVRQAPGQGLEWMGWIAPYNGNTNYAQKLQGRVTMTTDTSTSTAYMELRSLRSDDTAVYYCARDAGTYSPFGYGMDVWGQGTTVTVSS VL: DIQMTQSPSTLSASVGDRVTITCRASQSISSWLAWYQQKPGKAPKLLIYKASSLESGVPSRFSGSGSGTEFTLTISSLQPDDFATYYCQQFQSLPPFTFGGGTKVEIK

>  <pEC50>
9.77

$$$$
